Data origin: patent US20250152746A1

Can you tell me Human Primary Hepatocyte Editing % 100 for the items I'm about to list?
- Tested on: PCSK9 gene
- ASSAY COMMENT: PCSK9 gRNA/SpCas9 editing in primary human hepatocytes (Tables 2, 4)
- Type: cell-based
- RUN CONDITIONS: 100 ng/RNA/mL; SpCas9 mRNA MS002 1:1 by weight
In the oligonucleotide strings, read from the 5' end, every base follows the letter of its sugar. An asterisk marks phosphorothioate; unmarked linkages are phosphodiester. Other units and linkages are bracketed, terminal groups are in braces. A string of capitals states the bases alone. m = 2'-O-methyl; r = 2'-OH (RNA)
Write the numeric value and follow it with the unit.

[[record]]
molecule = "GA219: PCSK9 gRNA; protospacer GGCAGGGGTGGTCAGCGGCC (SEQ ID NO: 213) (nucleic acid, sugars from the 5' end m3 r94 m3, linkages s3 o93 s3 (s phosphorothioate, o phosphodiester), T or U not given here) guide: GGCAGGGGUGGUCAGCGGCCGUUUUAGAGCUAGAAAUAGCAAGUUAAAAUAAGGCUAGUCCGUUAUCAACUUGAAAAAGUGGCACCGAGUCGGUGCUUUU"
result = "1.28%"

[[record]]
molecule = "GA162: PCSK9 gRNA; protospacer GGACGGCGACTACGAGGAGC (SEQ ID NO: 156) (nucleic acid) guide: mG*mG*mA*rCrGrGrCrGrArCrUrArCrGrArGrGrArGrCrGrUrUrUrUrArGrArGrCrUrArGrArArArUrArGrCrArArGrUrUrArArArArUrArArGrGrCrUrArGrUrCrCrGrUrUrArUrCrArArCrUrUrGrArArArArArGrUrGrGrCrArCrCrGrArGrUrCrGrGrUrGrCrU*mU*mU*mU"
result = "2.14%"

[[record]]
molecule = "GA173: PCSK9 gRNA; protospacer CTTGGTGAGGTATCCCCGGC (SEQ ID NO: 167) (nucleic acid, sugars from the 5' end m3 r94 m3, linkages s3 o93 s3 (s phosphorothioate, o phosphodiester), T or U not given here) guide: CUUGGUGAGGUAUCCCCGGCGUUUUAGAGCUAGAAAUAGCAAGUUAAAAUAAGGCUAGUCCGUUAUCAACUUGAAAAAGUGGCACCGAGUCGGUGCUUUU"
result = "0.69%"

[[record]]
molecule = "GA176: PCSK9 gRNA; protospacer AGCACCACCACGTAGGTGCC (SEQ ID NO: 170) (nucleic acid, sugars from the 5' end m3 r94 m3, linkages s3 o93 s3 (s phosphorothioate, o phosphodiester), T or U not given here) guide: AGCACCACCACGUAGGUGCCGUUUUAGAGCUAGAAAUAGCAAGUUAAAAUAAGGCUAGUCCGUUAUCAACUUGAAAAAGUGGCACCGAGUCGGUGCUUUU"
result = "0.36%"

[[record]]
molecule = "GA193: PCSK9 gRNA; protospacer GGGGCTGGTATTCATCCGCC (SEQ ID NO: 187) (nucleic acid, sugars from the 5' end m3 r94 m3, linkages s3 o93 s3 (s phosphorothioate, o phosphodiester), T or U not given here) guide: GGGGCUGGUAUUCAUCCGCCGUUUUAGAGCUAGAAAUAGCAAGUUAAAAUAAGGCUAGUCCGUUAUCAACUUGAAAAAGUGGCACCGAGUCGGUGCUUUU"
result = "3.92%"


Please examine the following record next.
Using the record for GA207: PCSK9 gRNA; protospacer GGAAATCGAGGGCAGGGTCA (SEQ ID NO: 201) (nucleic acid, sugars from the 5' end m3 r94 m3, linkages s3 o93 s3 (s phosphorothioate, o phosphodiester), T or U not given here) guide: GGAAAUCGAGGGCAGGGUCAGUUUUAGAGCUAGAAAUAGCAAGUUAAAAUAAGGCUAGUCCGUUAUCAACUUGAAAAAGUGGCACCGAGUCGGUGCUUUU , report its Human Primary Hepatocyte Editing % 100. 0.84%
